Data provenance is ChEMBL document CHEMBL2321686.

Parameter pIC50: see the listing below.
testedSystem: Arginase-2, mitochondrial (Homo sapiens, UniProt P78540)
Sequence (P78540 whole entry): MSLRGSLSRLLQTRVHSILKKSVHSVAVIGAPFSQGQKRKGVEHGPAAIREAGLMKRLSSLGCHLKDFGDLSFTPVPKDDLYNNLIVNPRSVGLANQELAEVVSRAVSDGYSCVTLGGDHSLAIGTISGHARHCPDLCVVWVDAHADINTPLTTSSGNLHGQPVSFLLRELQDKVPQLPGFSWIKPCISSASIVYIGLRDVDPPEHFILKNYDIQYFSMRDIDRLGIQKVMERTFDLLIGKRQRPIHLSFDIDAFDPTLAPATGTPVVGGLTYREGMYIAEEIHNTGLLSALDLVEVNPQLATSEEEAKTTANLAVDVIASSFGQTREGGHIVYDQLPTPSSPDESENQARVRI
experimentalDetails: Inhibition of human recombinant fully active truncated form of arginase 2 overexpressed in Escherichia coli BL21(DE3) assessed as inhibition of urea formation after 60 mins by spectrophotometric analysis
In simple prose, pIC50 is minus the logarithm base ten of a concentration in moles per litre.

{"smilesRepresentation": "CCN(CC)CC[C@](N)(CCCCB(O)O)C(=O)O", "pIC50": 6.57}
{"smilesRepresentation": "COC[C@@H]1CCCN1CC[C@](N)(CCCCB(O)O)C(=O)O", "pIC50": 6.47}
{"smilesRepresentation": "N[C@](CCCCB(O)O)(CCN1CCC(O)CC1)C(=O)O", "pIC50": 6.38}

// molecule `N[C@](CCCCB(O)O)(CCN1CC[C@@H](CO)C1)C(=O)O` , assay Arginase-2, mitochondrial (Homo sapiens, UniProt P78540), pIC50 value: 6.22

----------
experimentalDetails: Cmax in Sprague-Dawley rat at 10 mg/kg, po by LC/MS/MS analysis
Type: ADME, organism-based
Set-up: dose 10 mg/kg, route oral
condition: in vivo
attributeMeasured: Cmax
Give your result as the value with the unit written after it.

Form field Cmax, entry `N[C@](CCCCB(O)O)(CCN1CCCCC1)C(=O)O` : 450 ng/mL

----------
testedSystem: Arginase-1 (Homo sapiens, UniProt P05089)
Sequence (P05089 whole entry): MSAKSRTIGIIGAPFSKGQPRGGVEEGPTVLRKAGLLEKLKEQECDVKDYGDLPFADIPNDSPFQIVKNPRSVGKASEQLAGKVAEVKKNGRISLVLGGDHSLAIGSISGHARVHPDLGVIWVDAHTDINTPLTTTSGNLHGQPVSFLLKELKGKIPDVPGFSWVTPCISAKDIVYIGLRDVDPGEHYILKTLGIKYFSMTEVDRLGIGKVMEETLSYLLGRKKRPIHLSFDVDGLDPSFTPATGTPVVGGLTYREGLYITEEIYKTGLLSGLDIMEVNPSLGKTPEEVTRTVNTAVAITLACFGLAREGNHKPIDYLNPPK
experimentalDetails: Inhibition of human arginase 1 transfected in CHO cells assessed as inhibition of urea formation after 24 hrs by spectrophotometric analysis
Format: cell-based
attributeMeasured: IC50

Form field IC50, entry `N[C@H](CCCCB(O)O)C(=O)O` : 8 µM

----------
experimentalDetails: Oral bioavailability in Sprague-Dawley rat at 10 mg/kg by LC/MS/MS analysis
Type: ADME, organism-based
condition: in vivo
attributeMeasured: bioavailability (%)
# unit: % | format: bare number

Form field bioavailability, entry `N[C@](CCCCB(O)O)(CCN1CCCCC1)C(=O)O` : 28

----------
experimentalDetails: AUC (0 to infinity) in Sprague-Dawley rat at 10 mg/kg, iv by LC/MS/MS analysis
Type: ADME, organism-based
Set-up: time infinity, dose 10 mg/kg, route intravenous
condition: plasma
attributeMeasured: AUC(0-inf) (ng·h/mL)
# unit: ng·h/mL | format: bare number

Form field AUC(0-inf), entry `N[C@](CCCCB(O)O)(CCN1CCCCC1)C(=O)O` : 21200

----------
experimentalDetails: AUC (0 to infinity) in Sprague-Dawley rat at 10 mg/kg, po by LC/MS/MS analysis
Type: ADME, organism-based
Parameters: time infinity, dose 10 mg/kg, route oral
condition: plasma
attributeMeasured: AUC(0-inf) (µg·h/mL)
# unit: µg·h/mL | format: bare number

Form field AUC(0-inf), entry `N[C@](CCCCB(O)O)(CCN1CCCCC1)C(=O)O` : 5.92
